Reference for the values: ChEMBL document CHEMBL5036380

Experiment: Tmax in Sprague-Dawley rat at 90 mg/kg, po measured up to 24 hrs by LC-MS/MS analysis
Assay type: ADME, organism-based
Details: in vivo
attribute_measured: Tmax (h)
Give bare numbers, in h.

**Q:** State its Tmax for this molecule: `COc1cc(/C=C/C(=O)c2ccc(F)cc2)c(OC)cc1Br`
**A:** 4.21

----------
Assay: AUC (0 to t) in Sprague-Dawley rat at 90 mg/kg, po measured up to 24 hrs by LC-MS/MS analysis
Assay type: ADME, organism-based
Parameters: route oral, dose 90 mg/kg, time <=24
Conditions: in vivo
attribute_measured: AUC(0-t) at 24 h (ng·h/mL)
Give bare numbers, in ng·h/mL.

**Q:** State its AUC(0-t) at 24 h for this molecule: `COc1cc(/C=C/C(=O)c2ccc(F)cc2)c(OC)cc1Br`
**A:** 23.5
